target.under.test: IRAK4 (Homo sapiens)
Sequence (Q9NWZ3 whole entry): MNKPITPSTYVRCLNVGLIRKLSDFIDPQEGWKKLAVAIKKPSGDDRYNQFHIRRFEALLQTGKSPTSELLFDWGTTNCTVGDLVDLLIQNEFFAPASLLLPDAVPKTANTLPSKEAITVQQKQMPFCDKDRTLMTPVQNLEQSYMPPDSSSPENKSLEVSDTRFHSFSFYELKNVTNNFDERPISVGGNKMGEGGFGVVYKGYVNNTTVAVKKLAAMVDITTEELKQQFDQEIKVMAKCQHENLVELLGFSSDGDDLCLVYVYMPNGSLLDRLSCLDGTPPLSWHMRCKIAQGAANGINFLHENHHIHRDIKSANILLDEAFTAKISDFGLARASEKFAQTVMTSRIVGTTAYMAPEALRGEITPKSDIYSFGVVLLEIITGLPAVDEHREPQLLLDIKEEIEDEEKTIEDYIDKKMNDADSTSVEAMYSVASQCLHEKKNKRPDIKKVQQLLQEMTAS
method.notes: 2-hour 1 mM ATP IRAK4 Biochemical assay (as above, but with 100 pM IRAK4 and 1 mM ATP)
assay.conditions: IRAK4 MSD BIOCHEMICAL (1 mM ATP) IC50 (μM), 100 pM IRAK4, 2 hours
property: IC50 (µM)

CCOc1cc2nc(C3CCOC3)cn2cc1NC(=O)c1cccc(C(F)(F)F)n1 (stereo not shown)    0.003
CCOc1cc(NC(=O)c2cccc(C(F)(F)F)n2)cn2cc(C3CCCOC3)nc12 (single isomer, unassigned) [Example 287]    0.006

1 = CC(C)Oc1cc2nc(C34CC(F)(C3)C4)cn2cc1NC(=O)c1cccc(C(F)(F)F)n1 [Example 539, 2,2,2-trifluoroacetate]
2 = CCOc1cc2nc(C3CCOCC3)cn2cc1NC(=O)c1cccc(C2CC2)n1
In: Could you determine which record has the numerically smaller IC50? Candidates: 1 and 2 Which one? Tell me its label.
Out: 1

Cited source for all entries: patent US20220089592A1
